Conditions: in ethyl acetate, 293.85 K
REPORTED ENDPOINT: solubility (mole fraction)
# answer = number (no unit)

Record COC(=O)c1ccccc1S(N)(=O)=O , field solubility (mole fraction): 0.0236

----------
Conditions: in ethyl formate, 283.15 K
REPORTED ENDPOINT: solubility (mole fraction)
# answer = number (no unit)

Record COC(=O)c1ccccc1S(N)(=O)=O , field solubility (mole fraction): 0.0145

----------
Settings: in 2-pentanone, 278.15 K
REPORTED ENDPOINT: solubility (mole fraction)

Record COC(=O)c1ccccc1S(N)(=O)=O , field solubility (mole fraction): 0.0218

----------
Conditions: in isopentanol, 308.05 K
REPORTED ENDPOINT: solubility (mole fraction)
# answer = number (no unit)

Record COC(=O)c1ccccc1S(N)(=O)=O , field solubility (mole fraction): 0.00483
